- ASSAY EXPLANATION: 1-week stability study
- Format: physicochemical
- MEASUREMENT SETUP: 80° C. (closed), 1 week; Sigma Aldrich colour chart

- COMPOUND: "COc1ccc(C23CCC(=O)CC2N(C)CC3)cc1OC.Cl (stereo not shown) [Hydrochloride Pattern 1, reference compound]"
  Observation: "Light brown solids (BR8)"
- COMPOUND: "COc1ccc(C23CCC(=O)CC2N(C)CC3)cc1OC.O=C(O)C=CC(=O)O (stereo not shown) [Fumarate Pattern 1 + 4, mesembrine fumarate]"
  Observation: "Light brown solids (BR8)"

* * *

- ASSAY EXPLANATION: 1-week stability study
- Assay type: physicochemical
- MEASUREMENT SETUP: 40° C./75% RH (open), 1 week
- Protocol: A 1-week stability study was performed for hydrochloride salt Pattern 1, besylate salt Pattern 1, fumarate salt Pattern 1+4, and fumarate salt Pattern 4. Approximately 5 mg of the salt was weighed into 3×2 mL push cap vials. The 2 mL vials were then each placed inside a 20 mL vial, with the lids on or off as required. […] After 1-week, visual observations were noted, then the solids were analysed by XRPD and HPLC.
MEASURE: XRPD (pattern number)

Examples with answers:
- COMPOUND: "COc1ccc(C23CCC(=O)CC2N(C)CC3)cc1OC.Cl (stereo not shown) [Hydrochloride Pattern 1, reference compound]"
  XRPD (pattern number): "1,"
- COMPOUND: "COc1ccc(C23CCC(=O)CC2N(C)CC3)cc1OC.O=S(=O)(O)c1ccccc1 (stereo not shown) [Besylate Pattern 1, mesembrine besylate]"
  XRPD (pattern number): "1,"
- COMPOUND: "COc1ccc(C23CCC(=O)CC2N(C)CC3)cc1OC.O=C(O)C=CC(=O)O (stereo not shown) [Fumarate Pattern 1 + 4, mesembrine fumarate]"
  XRPD (pattern number): "1/4,"

Now turn to the next compound.
So for COc1ccc(C23CCC(=O)CC2N(C)CC3)cc1OC.O=C(O)C=CC(=O)O (stereo not shown) [Fumarate Pattern 4, mesembrine fumarate] , the logged XRPD (pattern number) turned out to be 4,

* * *

- ASSAY EXPLANATION: 1-week stability study
- Assay type: physicochemical
- MEASUREMENT SETUP: Input
Provide the recorded HPLC for the entries that follow.
One number for each entry, in % area.

Example molecules with recorded HPLC:
- MOLECULE: "COc1ccc(C23CCC(=O)CC2N(C)CC3)cc1OC.O=C(O)C=CC(=O)O (stereo not shown) [Fumarate Pattern 4, mesembrine fumarate]"
  HPLC (% area): 95.9
- MOLECULE: "COc1ccc(C23CCC(=O)CC2N(C)CC3)cc1OC.Cl (stereo not shown) [Hydrochloride Pattern 1, reference compound]"
  HPLC (% area): 90.5

Provide each entry's HPLC from the list below.
1. COc1ccc(C23CCC(=O)CC2N(C)CC3)cc1OC.O=S(=O)(O)c1ccccc1 (stereo not shown) [Besylate Pattern 1, mesembrine besylate]
2. COc1ccc(C23CCC(=O)CC2N(C)CC3)cc1OC.O=C(O)C=CC(=O)O (stereo not shown) [Fumarate Pattern 1 + 4, mesembrine fumarate]

[A]
98.1
96.6

* * *

- ASSAY EXPLANATION: 1-week stability study
- Format: physicochemical
- MEASUREMENT SETUP: 40° C./75% RH (open), 1 week; Sigma Aldrich colour chart

- COMPOUND: "COc1ccc(C23CCC(=O)CC2N(C)CC3)cc1OC.Cl (stereo not shown) [Hydrochloride Pattern 1, reference compound]"
  Observation: "Light brown solids (BR8)"
- COMPOUND: "COc1ccc(C23CCC(=O)CC2N(C)CC3)cc1OC.O=S(=O)(O)c1ccccc1 (stereo not shown) [Besylate Pattern 1, mesembrine besylate]"
  Observation: "Light brown solids (BR8)"

* * *

- ASSAY EXPLANATION: 1-week stability study
- Type: physicochemical
- MEASUREMENT SETUP: Ambient light, temperature and humidity, 1 week
Task for the reader: assign each of the following compounds its reported XRPD (pattern number).

- COMPOUND: "COc1ccc(C23CCC(=O)CC2N(C)CC3)cc1OC.O=S(=O)(O)c1ccccc1 (stereo not shown) [Besylate Pattern 1, mesembrine besylate]"
  ASSAY RESULT: "1,"
- COMPOUND: "COc1ccc(C23CCC(=O)CC2N(C)CC3)cc1OC.O=C(O)C=CC(=O)O (stereo not shown) [Fumarate Pattern 4, mesembrine fumarate]"
  ASSAY RESULT: "4,"
- COMPOUND: "COc1ccc(C23CCC(=O)CC2N(C)CC3)cc1OC.O=C(O)C=CC(=O)O (stereo not shown) [Fumarate Pattern 1 + 4, mesembrine fumarate]"
  ASSAY RESULT: "1/4,"

Entry under test: COc1ccc(C23CCC(=O)CC2N(C)CC3)cc1OC.Cl (stereo not shown) [Hydrochloride Pattern 1, reference compound] . Its XRPD (pattern number) was 1,

* * *

- Format: physicochemical
- MEASUREMENT SETUP: Target pH 6.8, ca. 20 mg in 0.1 mL buffer

- COMPOUND: "COc1ccc(C23CCC(=O)CC2N(C)CC3)cc1OC.O=C(O)C=CC(=O)O (stereo not shown) [Fumarate Pattern 1 + 4, mesembrine fumarate]"
  Observation: "Oil"
- COMPOUND: "COc1ccc(C23CCC(=O)CC2N(C)CC3)cc1OC.Cl (stereo not shown) [Hydrochloride Pattern 1, reference compound]"
  Observation: "Clear solution"
- COMPOUND: "COc1ccc(C23CCC(=O)CC2N(C)CC3)cc1OC.O=S(=O)(O)c1ccccc1 (stereo not shown) [Besylate Pattern 1, mesembrine besylate]"
  Observation: "Clear solution"

* * *

- ASSAY EXPLANATION: 1-week stability study
- Assay type: physicochemical
- MEASUREMENT SETUP: 40° C./75% RH (open), 1 week
Field: HPLC. Provide a value for each of the compounds that follow.
Number plus unit, in that order.

Please look at the items below and tell me HPLC for each one, in order.
1. COc1ccc(C23CCC(=O)CC2N(C)CC3)cc1OC.O=C(O)C=CC(=O)O (stereo not shown) [Fumarate Pattern 4, mesembrine fumarate]
2. COc1ccc(C23CCC(=O)CC2N(C)CC3)cc1OC.O=C(O)C=CC(=O)O (stereo not shown) [Fumarate Pattern 1 + 4, mesembrine fumarate]

[A]
1: 96.4 % area; 2: 95.6 % area

Go through the list and state HPLC for each entry.
1. COc1ccc(C23CCC(=O)CC2N(C)CC3)cc1OC.O=S(=O)(O)c1ccccc1 (stereo not shown) [Besylate Pattern 1, mesembrine besylate]
2. COc1ccc(C23CCC(=O)CC2N(C)CC3)cc1OC.Cl (stereo not shown) [Hydrochloride Pattern 1, reference compound]

[A]
98.0 % area
93.4 % area

* * *

- ASSAY EXPLANATION: primary salt formation assessment: storage at 40° C./75% RH for ca. 24 h, XRPD
- Format: physicochemical
- MEASUREMENT SETUP: solids stored at 40° C./75% RH for ca. 24 h
MEASURE: physical stability at 40° C./75% RH (Comments)

- COMPOUND: "COc1ccc(C23CCC(=O)CC2N(C)CC3)cc1OC.O=S(=O)(O)c1ccccc1 (stereo not shown) [Besylate Pattern 1, mesembrine besylate]"
  ASSAY RESULT: "physically stable"
- COMPOUND: "COc1ccc(C23CCC(=O)CC2N(C)CC3)cc1OC.Cl (stereo not shown) [Hydrochloride Pattern 1, reference compound]"
  ASSAY RESULT: "physically stable"

* * *

- ASSAY EXPLANATION: 1-week stability study
- Format: physicochemical
- MEASUREMENT SETUP: 80° C. (closed), 1 week
I'd appreciate it if you could supply HPLC values for the items below.
Numbers only, in % area.

// solved cases for HPLC follow
- MOLECULE: "COc1ccc(C23CCC(=O)CC2N(C)CC3)cc1OC.O=S(=O)(O)c1ccccc1 (stereo not shown) [Besylate Pattern 1, mesembrine besylate]"
  READOUT UNITS: "% area"
  HPLC: 96.7
- MOLECULE: "COc1ccc(C23CCC(=O)CC2N(C)CC3)cc1OC.Cl (stereo not shown) [Hydrochloride Pattern 1, reference compound]"
  READOUT UNITS: "% area"
  HPLC: 92.8

// for each molecule below, give its HPLC
1. COc1ccc(C23CCC(=O)CC2N(C)CC3)cc1OC.O=C(O)C=CC(=O)O (stereo not shown) [Fumarate Pattern 4, mesembrine fumarate]
2. COc1ccc(C23CCC(=O)CC2N(C)CC3)cc1OC.O=C(O)C=CC(=O)O (stereo not shown) [Fumarate Pattern 1 + 4, mesembrine fumarate]

[A]
1. 96.4
2. 83.4
